tested on: CP265; assay: qHTS profiling for inhibitors of Plasmodium falciparum proliferation (AID 504749); also: nearly all actives have a fitted effect of over 60% in size; details: P. falciparum in erythrocytes, SYBR Green DNA, 72 h; series mostly up to 12.8 µM
Records with an inconclusive call do not appear. Active and inactive are the calls of the source. Calls follow the shape of the dose curve; as a rule, active = well fitted inhibition curve with a large enough effect; inconclusive = small, poorly fitted or top-dose-only effect; inactive = flat fitted curve, though single readings scatter.
Pick from active, inactive when you respond.

Answered examples (2):
{"columns": ["molecule", "tested_target", "label_class"],
 "data": [
  ["C1CCN2C[C@@H]3C[C@@H](CN4CCCC[C@H]34)[C@H]2C1", "CP265", "inactive"],
  ["CO[C@@H]1C[C@H](O[C@H]2[C@@H](C)[C@H](O[C@@H]3O[C@@H](C)C[C@@H](N(C)C)[C@@H]3OC(C)=O)[C@H](C)C[C@]3(CO3)C(=O)[C@H](C)[C@H](OC(C)=O)[C@H](C)[C@H](C)OC(=O)[C@@H]2C)O[C@H](C)[C@@H]1OC(C)=O", "CP265", "inactive"]
]}

Prompt: Name the outcome recorded for `CC(C)NC[C@H]1CCc2cc(CO)c([N+](=O)[O-])cc2N1` in the assay.
Response: inactive

Prompt: Name the outcome recorded for COc1ccc2cc(C(C)CO)ccc2c1 (stereo not drawn) in the assay.
Response: inactive

----------
test system: JCK; experiment: qHTS profiling for inhibitors of Plasmodium falciparum proliferation (AID 504749); also: nearly all actives have a fitted effect of over 60% in size; details: P. falciparum in erythrocytes, SYBR Green DNA, 72 h; series mostly up to 12.8 µM
Records with an inconclusive call do not appear. Calls of active or inactive are those of the source. Calls come from the whole dose curve; as a rule, active = well fitted inhibition curve with a large enough effect; inconclusive = small, poorly fitted or top-dose-only effect; inactive = flat fitted curve, though single readings scatter.
Pick from active, inactive when you respond.

Answered examples (2):
{"columns": ["compound", "label_class"],
 "data": [
  ["CCN1CCC[C@@H](OC(=O)C(c2ccccc2)c2ccccc2)C1", "inactive"],
  ["CCC(C)(C)C(=O)O[C@@H]1C[C@H](C)C=C2C=C[C@H](C)[C@@H](CC[C@H]3C[C@@H](O)CC(=O)O3)[C@H]21", "inactive"]
]}

With those in mind, consider the next compound.
Prompt: Name the outcome recorded for CC1(C)OC2CC(=O)OC[C@@]23C1CC(=O)[C@]1(C)C3CC[C@@]2(C)C(c3ccoc3)OC(=O)C3O[C@@]321 (some centres undefined) in the assay.
Response: inactive

----------
tested on: CP194; assay: qHTS profiling for inhibitors of Plasmodium falciparum proliferation (AID 504749); also: nearly all actives have a fitted effect of over 60% in size; settings: P. falciparum in erythrocytes, SYBR Green DNA, 72 h; series mostly up to 12.8 µM
Inconclusive results are not listed. Activity calls are given as the source filed them. Calls come from the whole dose curve; as a rule, active = well fitted inhibition curve with a large enough effect; inconclusive = small, poorly fitted or top-dose-only effect; inactive = flat fitted curve, though single readings scatter.
Pick from class 1 (active), class 0 (inactive) when you respond.

{"columns": ["molecule", "label_class"],
 "data": [
  ["CC1(C)O[C@@H]2C[C@H]3[C@H]4C[C@H](F)C5=CC(=O)CC[C@]5(C)[C@@H]4[C@H](O)C[C@]3(C)[C@]2(C(=O)CO)O1", "class 0"],
  ["Cc1ccc(S(=O)(=O)NC(=O)NN2C[C@H]3CCC[C@@H]3C2)cc1", "class 0"],
  ["OCC1OC(n2cnc3c(=S)nc[nH]c32)C(O)C1O (stereo unspecified)", "class 0"],
  ["COCC(=O)Nc1c(I)c(C(=O)NC[C@@H](O)CO)c(I)c(C(=O)N(C)C[C@@H](O)CO)c1I", "class 0"],
  ["CCC(=O)OCC(=O)[C@@]1(OC(=O)CC)[C@H](C)C[C@@H]2[C@@H]3[C@H]([C@@H](O)C[C@@]21C)[C@]1(C)C=CC(=O)C=C1C[C@@H]3Cl", "class 0"]
]}

With those in mind, consider the next molecule.
Prompt: Name the outcome recorded for CCC(=O)O[C@@]1(C(=O)CCl)C(C)CC2C3CCC4=CC(=O)C=C[C@@]4(C)[C@]3(F)C(O)C[C@]21C (stereo partly specified) in the assay.
Response: class 1

----------
target: Rap guanine nucleotide exchange factor 4 (Homo sapiens); assay: Confirmatory qHTS for antagonist of cAMP-regulated guanine nucleotide exchange factor 4 (EPAC2) (AID 1645885); conditions: EPAC2 Rap1B-BODIPY-GDP exchange fluorescence, biochemical; series mostly up to 12.7 µM; also: nearly all actives have a fitted effect of over 25% in size
Results filed as inconclusive are left out. The source made the active and inactive calls. Calls come from the whole dose curve; as a rule, active = well fitted inhibition curve with a large enough effect; inconclusive = small, poorly fitted or top-dose-only effect; inactive = no such curve, though single readings can be large or run the other way.
measure: outcome

Recorded results for 8 compounds are shown here.
{"columns": ["compound", "outcome"],
 "data": [
  ["CC(=O)CCc1oc2ccc(C)cc2c1-c1ccccc1", "inactive"],
  ["COc1ccc(CN2C(=O)CN(S(C)(=O)=O)CC2(C)C(=O)Nc2c(C)cccc2C)cc1OC (configuration not stated)", "inactive"],
  ["Cc1ccc(C)c(N(C)C(=O)c2cn(C)c(=O)c3ccccc23)c1", "inactive"],
  ["CCc1ccccc1NC(=O)CCC(=O)N1CCN(C(C)=O)CC1", "inactive"],
  ["CCOC(=O)C1CCN(C(=O)c2cccc(S(=O)(=O)N(CC)c3ccccc3)c2)CC1", "inactive"],
  ["CCOC(=O)c1sc2nc(-c3ccco3)c3c(c2c1N)CC(C)(C)OC3", "inactive"],
  ["COc1ccc(/C=N/NC(=O)c2cccnc2)cc1CN1CCCc2ccccc21", "inactive"],
  ["CN(CCc1ccccn1)C(=O)Nc1ccc(F)cc1", "inactive"]
]}

Prompt: Specify outcome for `COc1cccc(NC(=O)c2csc3c2CCCC3)c1` and stop.
Response: inactive

Prompt: Specify outcome for `O=C(Nc1cccs1)Nc1ccccc1Cl` and stop.
Response: inactive

Prompt: Specify outcome for `C/C(=C\C(=O)c1ccccc1)Nc1ccc(O)cc1` and stop.
Response: inactive

Prompt: Specify outcome for `Cc1ccc(C)c(NC(=O)CN(C)C(=O)c2cccc(S(=O)(=O)N3CCCC3)c2)c1` and stop.
Response: inactive

----------
tested on: PAD; experiment: qHTS profiling for inhibitors of Plasmodium falciparum proliferation (AID 504749); also: nearly all actives have a fitted effect of over 60% in size; details: P. falciparum in erythrocytes, SYBR Green DNA, 72 h; series mostly up to 12.8 µM
Records with an inconclusive call do not appear. The source made the active and inactive calls. Calls come from the whole dose curve; as a rule, active = well fitted inhibition curve with a large enough effect; inconclusive = small, poorly fitted or top-dose-only effect; inactive = flat fitted curve, though single readings scatter.
Pick from yes (1) (active), no (0) (inactive) when you respond.

{"columns": ["compound", "label_class"],
 "data": [
  ["CC(=O)OCC(=O)[C@@]12OC(C)(C)O[C@@H]1C[C@H]1[C@H]3C[C@H](F)C4=CC(=O)C=C[C@@]4(C)[C@]3(F)[C@H](O)C[C@@]12C", "no (0)"],
  ["CC(=O)[C@@]1(O)CC[C@H]2[C@H]3C[C@@H](C)C4=CC(=O)C=C[C@]4(C)[C@@]3(F)[C@@H](O)C[C@]21C", "no (0)"]
]}

Prompt: Name the outcome recorded for `NC(=O)N[C@H]1NC(=O)NC1=O` in the assay.
Response: no (0)

Prompt: Name the outcome recorded for `O=C(O)[C@@H]1CCCN1` in the assay.
Response: no (0)

Prompt: Name the outcome recorded for COc1ccc(CC(N)C(=O)NC2C(CO)OC(n3cnc4c(N(C)C)ncnc43)C2O)cc1 (stereo not given) in the assay.
Response: yes (1)

Prompt: Name the outcome recorded for `CN[C@H]1[C@@H](O)[C@@H](NC)[C@@H]2O[C@@]3(O)C(=O)C[C@@H](C)O[C@H]3O[C@H]2[C@H]1O` in the assay.
Response: no (0)

Prompt: Name the outcome recorded for `CC(C)Oc1ccc2c(=O)cc(-c3ccccc3)oc2c1` in the assay.
Response: no (0)

Prompt: Name the outcome recorded for `CC[C@H](CO)NCCN[C@@H](CC)CO` in the assay.
Response: no (0)

Prompt: Name the outcome recorded for `CC[C@@H]1OC(=O)[C@H](C)[C@H](O[C@@H]2C[C@](C)(OC)[C@H](O)[C@H](C)O2)[C@H](C)[C@H](O[C@@H]2O[C@@H](C)C[C@@H](N(C)C)[C@@H]2O)[C@](C)(O)C[C@H](C)C(=NOCOCCOC)[C@H](C)[C@H](O)[C@]1(C)O` in the assay.
Response: no (0)

Prompt: Name the outcome recorded for `COc1cc2nc(N3CCN(C(=O)[C@@H]4CCCO4)CC3)nc(N)c2cc1OC` in the assay.
Response: no (0)

Prompt: Name the outcome recorded for `NCc1ccccc1CC(=O)N[C@@H]1C(=O)N2C(C(=O)O)=C(CSc3nnnn3CC(=O)O)CS[C@@H]12` in the assay.
Response: no (0)

Prompt: Name the outcome recorded for CC1(C)OC2CC(=O)OC[C@@]23C1CC(=O)[C@]1(C)C3CC[C@@]2(C)C(c3ccoc3)OC(=O)C3O[C@@]321 (stereo not given in full) in the assay.
Response: no (0)

Prompt: Name the outcome recorded for CCC(CCC(C)C1CCC2C3CC=C4CC(O)CC[C@@]4(C)C3CC[C@@]12C)C(C)C (stereo not given in full) in the assay.
Response: no (0)

Prompt: Name the outcome recorded for `COc1cc(N[C@@H](C)CCCN)c2ncccc2c1` in the assay.
Response: yes (1)

Prompt: Name the outcome recorded for `COc1ccccc1OC[C@H](O)CO` in the assay.
Response: no (0)
